EXPERIMENTAL TARGET: human MC3R (human, UniProt P41968 1-323)
Sequence (P41968 whole entry): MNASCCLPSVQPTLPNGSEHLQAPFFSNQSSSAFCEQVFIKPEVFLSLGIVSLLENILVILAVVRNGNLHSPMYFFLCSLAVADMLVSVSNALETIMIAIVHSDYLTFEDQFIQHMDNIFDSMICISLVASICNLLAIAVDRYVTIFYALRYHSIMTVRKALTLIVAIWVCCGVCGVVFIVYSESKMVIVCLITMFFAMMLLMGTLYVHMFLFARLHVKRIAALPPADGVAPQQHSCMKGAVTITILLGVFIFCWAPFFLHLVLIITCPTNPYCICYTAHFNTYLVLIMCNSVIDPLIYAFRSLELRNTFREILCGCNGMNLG
ASSAY NOTES: cell-based or functional assay
Non-standard residues stand in square brackets, D forms with d. Phe(4-I) = N[C@@H](Cc1ccc(I)cc1)C(=O)O; Nle = CCCC[C@H](N)C(=O)O
Catalogue of binders with associated MC3R cAMP (EC50)

{"BINDER": "Ac-[Nle]GHFR[dW]DRFG-OH (SMILES CCCC[C@H](NC(C)=O)C(=O)NCC(=O)N[C@@H](Cc1c[nH]cn1)C(=O)N[C@@H](Cc1ccccc1)C(=O)N[C@@H](CCCNC(=N)N)C(=O)N[C@H](Cc1c[nH]c2ccccc12)C(=O)N[C@@H](CC(=O)O)C(=O)N[C@@H](CCCNC(=N)N)C(=O)N[C@@H](Cc1ccccc1)C(=O)NCC(=O)O) [CTX-1185]", "MC3R cAMP (EC50) [nM]": 2.7}
{"BINDER": "Ac-[Nle][dA]HFR[dW]G-NH2 (SMILES CCCC[C@H](NC(C)=O)C(=O)N[C@H](C)C(=O)N[C@@H](Cc1c[nH]cn1)C(=O)N[C@@H](Cc1ccccc1)C(=O)N[C@@H](CCCNC(=N)N)C(=O)N[C@H](Cc1c[nH]c2ccccc12)C(=O)NCC(N)=O) [CTX-1540]", "MC3R cAMP (EC50) [nM]": 25.1}
{"BINDER": "Ac-[Nle][dA]H[Phe(4-I)]R[dW]DRFG-OH (SMILES CCCC[C@H](NC(C)=O)C(=O)N[C@H](C)C(=O)N[C@@H](Cc1c[nH]cn1)C(=O)N[C@@H](Cc1ccc(I)cc1)C(=O)N[C@@H](CCCNC(=N)N)C(=O)N[C@H](Cc1c[nH]c2ccccc12)C(=O)N[C@@H](CC(=O)O)C(=O)N[C@@H](CCCNC(=N)N)C(=O)N[C@@H](Cc1ccccc1)C(=O)NCC(=O)O) [CTX-1167]", "MC3R cAMP (EC50) [nM]": 4.8}
{"BINDER": "YVXAHFRWDRFG (Nle at 3; D-Ala at 4; D-Trp at 8; D-Phe at 11) [CTX-1127]", "MC3R cAMP (EC50) [nM]": 2.5}
{"BINDER": "H-[dY]V[Nle][dA]HFR[dW]D-NH2 (SMILES CCCC[C@H](NC(=O)[C@@H](NC(=O)[C@H](N)Cc1ccc(O)cc1)C(C)C)C(=O)N[C@H](C)C(=O)N[C@@H](Cc1c[nH]cn1)C(=O)N[C@@H](Cc1ccccc1)C(=O)N[C@@H](CCCNC(=N)N)C(=O)N[C@H](Cc1c[nH]c2ccccc12)C(=O)N[C@@H](CC(=O)O)C(N)=O) [CTX-1142]", "MC3R cAMP (EC50) [nM]": 36}
{"BINDER": "Ac-[Nle][dA]HFR[dW]DKFG-OH (SMILES CCCC[C@H](NC(C)=O)C(=O)N[C@H](C)C(=O)N[C@@H](Cc1c[nH]cn1)C(=O)N[C@@H](Cc1ccccc1)C(=O)N[C@@H](CCCNC(=N)N)C(=O)N[C@H](Cc1c[nH]c2ccccc12)C(=O)N[C@@H](CC(=O)O)C(=O)N[C@@H](CCCCN)C(=O)N[C@@H](Cc1ccccc1)C(=O)NCC(=O)O) [CTX-1535]", "MC3R cAMP (EC50) [nM]": 6}
